log10 of Kd values by entry
Molecular target: T1, human CD123 Strep-II tagged Fc-fusion protein (human)
T1 construct: also called human CD123-Fc; recombinant CD123
T1 sequence (chain, as listed by the source limits assumed): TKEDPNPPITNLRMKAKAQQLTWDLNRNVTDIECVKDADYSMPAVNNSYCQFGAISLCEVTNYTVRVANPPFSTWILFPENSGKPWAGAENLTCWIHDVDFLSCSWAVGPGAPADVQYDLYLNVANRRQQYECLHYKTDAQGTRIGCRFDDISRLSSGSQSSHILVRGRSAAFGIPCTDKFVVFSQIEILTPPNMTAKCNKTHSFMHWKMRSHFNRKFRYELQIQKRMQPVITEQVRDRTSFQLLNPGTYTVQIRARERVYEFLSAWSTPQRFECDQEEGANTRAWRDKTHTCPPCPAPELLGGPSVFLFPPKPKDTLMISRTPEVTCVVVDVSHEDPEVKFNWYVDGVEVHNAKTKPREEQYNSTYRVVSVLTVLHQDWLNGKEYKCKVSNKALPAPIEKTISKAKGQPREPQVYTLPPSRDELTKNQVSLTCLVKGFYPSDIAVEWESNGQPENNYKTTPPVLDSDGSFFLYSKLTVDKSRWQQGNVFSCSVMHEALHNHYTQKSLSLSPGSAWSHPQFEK
Assay: SPR Proteon XPR36, rat IgG captured, CD123-Fc analyte
Plainly stated, the numbers are log10 of Kd given in nM.

# annotated cases, reported log10 of Kd shown
binder	log10 of Kd
5A5-B4 anti-CD123 rat IgG (hybridoma supernatant) (antibody, V domains shown, rat IgG; also called BFX - 5A5) VH: QIQIVQSGSDVTSTCNGCGTCYFSGFSLSTTGICVSWIRQPSGKGQEWLADFCWDDGKGYNPSLKNRLSISKDTSNNQVFLKITSVDTADTATYYCARRRVYYGIYFDYWGQGVMVTVSS VL: DIVMTQSPALAVSPGERVSISCRASNSVSTRMHWYQQKPGQQPKLLIYGASNLESGVPARFSGSGSGTDFTLTIDPVEADDIATYFCQQSWNDPLTFGSGTKLEIK	0.04
8B11-B7 anti-CD123 rat IgG (hybridoma supernatant) (antibody, V domains shown, rat IgG; also called BFX - 8B11) VH: QVQLQESGPTLVNPGDSVKMSCKASGYTFTDHIIHWVKQSHGKSLEWIGYINPYSGGANYNGKFKSKATLTIDKSSSTAYMEFSRLTSGDSAIYYCALNYGSYYAMDAWGQGTSVTVSS VL: DIQMTQSPASLSASLGETVTIECRTSKDIYSNLAWFQQEPGNSPQLLIYDASNLADGVPSRFSGSGSGTQYSLQINNLQSEDVASYFCHQYNNYPYTFGTGTKLELK	-2.00
1E1-G5 anti-CD123 rat IgG (hybridoma supernatant) (antibody, V domains shown, rat IgG; also called BFX - 1E1) VH: QVQLQESGPTLVKPGDSVKMSCKAFGYTFTDHIIHWVKQSHGKSLEWIGYINPYSGGTNYNEKFKSKATLTVDKSSSTAYMEFSRLTSEDSAICYCALNYGSYYAMDAWGQGTSVTVSS VL: DIQMTQSPASLSASLGQTVTIECRPSEDIYSNLAWFQQKPGSSPQLLIYDANNLADGVPSRFSGSGSGTQYSLKINSLQSEDVASYFCQQYNKYPYTFGTGTKLELK	-0.64
9B8-G6 anti-CD123 rat IgG (hybridoma supernatant) (antibody, V domains shown, rat IgG; also called BFX - 9B8) VH: EVKLQESGPSLVQSSQTLSLTCTVSGFSLTSYHIHWVRQPPGKGLEWMGVMWSDGDTSYSSALKSRLSISRDTSQSQVFLKMNSLQTEDTATYYCARGDYSSYIYLWFAYWGQGTLVTVSS VL: DIVMTQSPSSLAVSAGETVTINCKSSQSFLSSGDERNYVAWYQHKPGQSPKLLIYWASTRHSGVPDRFIGSGSGTDFTLTISSVQAEDLAIYYCQQYYDTPLTFGSGTKLEIK	-0.72

Lab note: next binder to report on.
Hello, please tell me recorded log10 of Kd for this one: 6C10-C4 anti-CD123 rat IgG (hybridoma supernatant) (antibody, V domains shown, rat IgG; also called BFX - 6C10) VH: EVKLQESGPSLVQPSETLSLTCTVSGFSLTSYSVHWVRQHSGKSLEWMGRMWNDGDTSYNSAFTSRLSISRDTSKGQVFLKMNSLQTEDTGTYYCARGHRTPFDYWGQGVMVTVSS VL: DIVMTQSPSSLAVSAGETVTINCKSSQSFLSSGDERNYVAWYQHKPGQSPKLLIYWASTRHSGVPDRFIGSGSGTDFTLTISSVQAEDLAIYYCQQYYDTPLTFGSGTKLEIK
-0.12
